Below, each of the compounds is paired with its reported pEC50 value.
Biological target: human TLR 8 protein (Homo sapiens)
Sequence (Q9NR97 27-1041): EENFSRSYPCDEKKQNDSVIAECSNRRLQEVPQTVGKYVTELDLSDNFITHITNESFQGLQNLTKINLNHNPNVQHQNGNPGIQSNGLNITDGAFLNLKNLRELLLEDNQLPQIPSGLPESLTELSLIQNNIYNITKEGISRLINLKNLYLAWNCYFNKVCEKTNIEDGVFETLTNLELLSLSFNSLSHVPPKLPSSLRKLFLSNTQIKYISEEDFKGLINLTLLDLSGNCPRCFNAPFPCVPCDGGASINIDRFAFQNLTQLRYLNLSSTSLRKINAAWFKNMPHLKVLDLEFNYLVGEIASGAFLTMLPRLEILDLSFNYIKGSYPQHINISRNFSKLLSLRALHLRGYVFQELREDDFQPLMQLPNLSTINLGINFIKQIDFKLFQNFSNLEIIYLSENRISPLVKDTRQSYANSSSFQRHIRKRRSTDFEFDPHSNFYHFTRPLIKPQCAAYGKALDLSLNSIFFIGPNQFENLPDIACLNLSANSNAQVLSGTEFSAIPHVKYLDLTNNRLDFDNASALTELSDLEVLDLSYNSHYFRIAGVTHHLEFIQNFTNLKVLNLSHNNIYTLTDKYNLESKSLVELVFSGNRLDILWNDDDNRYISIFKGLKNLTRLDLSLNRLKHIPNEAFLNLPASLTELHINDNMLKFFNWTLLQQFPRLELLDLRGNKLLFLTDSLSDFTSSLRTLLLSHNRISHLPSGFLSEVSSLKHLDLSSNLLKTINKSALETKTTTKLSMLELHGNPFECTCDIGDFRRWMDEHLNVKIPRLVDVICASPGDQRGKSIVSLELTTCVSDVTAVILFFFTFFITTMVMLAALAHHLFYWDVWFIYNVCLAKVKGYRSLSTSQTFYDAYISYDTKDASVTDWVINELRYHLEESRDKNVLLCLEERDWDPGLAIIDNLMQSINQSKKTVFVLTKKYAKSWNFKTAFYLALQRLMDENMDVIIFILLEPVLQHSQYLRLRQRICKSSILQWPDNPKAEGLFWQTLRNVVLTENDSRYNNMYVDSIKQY
Assay: TLR8 Stimulation determined using HEK-Blue Detection
Conditions: HEK-Blue hTLR8 cells, 16 hr, percentages of maximum activation with Resiquimod or Motolimod, Table 3
Description: TLR8 Stimulation determined using HEK-Blue Detection This assay was designed for studying the stimulation of human TLR 8 protein in HEK-Blue hTLR8 tool cell line by monitoring the activation of NF-κB. […] Levels of SEAP can be easily determined with HEK-Blue Detection, a cell culture medium that allows for real-time detection of SEAP. […] The hydrolysis of the substrate by SEAP produces a purple/blue color that can be measured with a spectrophotometer. […]
pEC50: −log10 of the molar value.
quantity_name: pEC50

>>> val("CCCC(C)Oc1nc(N)c2ncc(Cc3cnc(N4CCC(CNCC(C)C)CC4)c(C)c3)n2n1 (centres unmarked)")
6.35
>>> val("CCC[C@H](C)Oc1nc(N)c2ncc(Cc3cnc(N4CCNCC4)c(OC)c3)n2n1")
6.35
>>> val("CCC[C@H](C)Oc1nc(N)c2ncc(Cc3cnc(N4CCNCC4)c(C)c3)n2n1")
6.71
>>> val("CCCC(CCO)Oc1nc(N)c2ncc(Cc3ccc(C4CCNCC4)nc3F)n2n1 (centres unmarked)")
7.13
>>> val("CCC[C@H](C)Nc1nc(N)c2ncc(Cc3cnc(C4CCNCC4)c(C)c3)n2n1")
5.82
>>> val("CCC[C@H](C)Oc1nc(N)c2ncc(Cc3cnc(N4CCC(CN(C)C)CC4)c(C)c3)n2n1")
6.51
>>> val("CCCC(CO)Oc1nc(N)c2ncc(Cc3cnc(N4CCC(CNC)CC4)c(C)c3)n2n1 (centres unmarked)")
5.44
>>> val("CCCCOc1nc(N)c2ncc(Cc3ccc(C4CCNCC4)nc3F)n2n1")
6.60
>>> val("CCC[C@H](C)Oc1nc(N)c2ncc(Cc3ccn(C4CCNCC4)c(=O)c3)n2n1")
6.44
>>> val("CCC[C@H](C)Oc1nc(N)c2ncc(Cc3ccc(C4CCNCC4)nc3F)n2n1")
6.91
>>> val("CCCC(CCO)Oc1nc(N)c2ncc(Cc3cnc(N4CCNCC4)c(C)c3)n2n1 (centres unmarked)")
6.82
>>> val("CCC[C@H](C)Nc1nc(N)c2ncc(Cc3cnc(N4CCC(CN(C)CCNC)CC4)c(C)c3)n2n1")
6.31

====

target: human TLR7 (Homo sapiens); construct: host or cells: HEK293 (HEK-Blue hTLR7); assay: HEK293-Blue hTLR7 Reporter Assay (QUANTI-BLUE, SEAP readout); format: cell-based; settings: HEK-Blue-hTLR7 cells, 24 hrs treatment, Table 1, B1-B232
Sequence (Q9NYK1 27-1049): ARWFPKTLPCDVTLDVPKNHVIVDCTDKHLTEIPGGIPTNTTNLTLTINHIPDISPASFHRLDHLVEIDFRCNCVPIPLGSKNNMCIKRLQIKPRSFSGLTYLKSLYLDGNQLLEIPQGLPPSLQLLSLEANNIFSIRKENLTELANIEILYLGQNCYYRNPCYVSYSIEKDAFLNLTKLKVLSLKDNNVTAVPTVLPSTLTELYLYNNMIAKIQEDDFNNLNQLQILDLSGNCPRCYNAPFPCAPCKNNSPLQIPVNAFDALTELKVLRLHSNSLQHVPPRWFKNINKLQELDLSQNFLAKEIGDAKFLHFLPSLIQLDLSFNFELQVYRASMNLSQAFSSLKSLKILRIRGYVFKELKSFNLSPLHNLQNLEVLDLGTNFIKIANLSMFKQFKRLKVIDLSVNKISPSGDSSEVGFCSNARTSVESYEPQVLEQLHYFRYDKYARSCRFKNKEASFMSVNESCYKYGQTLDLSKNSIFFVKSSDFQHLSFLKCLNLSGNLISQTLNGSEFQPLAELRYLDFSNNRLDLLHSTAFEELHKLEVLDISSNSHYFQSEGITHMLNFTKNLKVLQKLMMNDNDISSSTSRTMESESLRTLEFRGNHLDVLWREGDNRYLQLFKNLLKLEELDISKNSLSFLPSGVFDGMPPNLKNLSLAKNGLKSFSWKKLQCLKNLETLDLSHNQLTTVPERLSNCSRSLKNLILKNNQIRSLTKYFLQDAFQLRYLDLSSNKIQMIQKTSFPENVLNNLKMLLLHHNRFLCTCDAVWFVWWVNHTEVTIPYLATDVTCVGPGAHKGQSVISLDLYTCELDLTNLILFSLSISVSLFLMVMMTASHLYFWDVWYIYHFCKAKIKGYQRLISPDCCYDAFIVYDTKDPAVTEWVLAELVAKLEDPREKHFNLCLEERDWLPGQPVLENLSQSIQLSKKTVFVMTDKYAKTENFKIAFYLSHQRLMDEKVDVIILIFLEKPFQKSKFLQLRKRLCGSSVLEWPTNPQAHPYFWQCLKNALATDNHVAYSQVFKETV
With a cut-off of 200 nM, any EC50 strictly below it is called Met; any EC50 meeting it or above is called Not met.

>>> class("COCC(C)Oc1nc(N)c2ncc(Cc3cnc(N4CCNCC4)c(C)c3)n2n1 (stereo not shown) [Compound B174]")
"Met"
>>> class("CCCCOc1nc(N)c2ncc(Cc3cnc(N4CCN(C(=O)CN(C)C)[C@@H](C)C4)c(C)c3)n2n1 [Compound B179]")
"Met"
>>> class("CCCC(CCO)Oc1nc(N)c2ncc(Cc3cnc(N4CCNCC4)c(C)c3)n2n1 (stereo not shown) [Compound B165]")
"Met"
>>> class("CCCCOc1nc(N)c2ncc(Cc3cnc(N4CCC(COC)CC4)c(C)c3)n2n1 [Compound B104]")
"Not met"
>>> class("CCCCOc1nc(N)c2ncc(Cc3ccc(N4CCNCC4)c(OC)c3)n2n1 [Compound B45]")
"Not met"
>>> class("CCCCOc1nc(N)c2ncc(Cc3ccc(N4CCNCC4)c(C)c3)n2n1 [Compound B36]")
"Met"
